Target System: acetylcholine receptor (Homo sapiens)
Experimental Details: SPR binding affinity (RU) of optimized 5mer/6mer/7mer peptides, Examples 6-7
Study Conditions: SPR, peptides tested at 10 μM; 6mer-1 Bottom sequence (Table 11)
Class membership depends on Binding affinity alone; the intervals are one = under 20 Ru, two = from 20 Ru up to 30 Ru, three = 30 Ru and over

Below are worked cases with known answers.
6mer-1-896 (KRDWIK) : one
6mer-1-901 (RKPNGR) : three
6mer-1-862 (KKHSEK) : three
6mer-1-991 (RKAHDK) : two
6mer-1-894 (RKCWWR) : one
6mer-1-931 (KKNWPR) : three
6mer-1-911 (KRCAAR) : two
6mer-1-811 (KRHCHK) : one

Q: The entry to classify is 6mer-1-888 (KKTANK) ; which class holds it?
Result: three

Q: Kindly identify the class of 6mer-1-810 (RKCNAR) .
Result: one

Q: Given 6mer-1-988 (KRYPDR) , name the class its Binding affinity places it in.
Result: two

Q: GET /class?item= 6mer-1-869 (KRKDER)
Result: two

Q: Which class holds 6mer-1-893 (RRIPHR) ?
Result: two

Q: Which Binding affinity band matches 6mer-1-884 (KRYTKR) ?
Result: two

Q: Each substance maps to one class by Binding affinity. Which class for 6mer-1-925 (KKAMHR) ?
Result: three

Q: Classify this substance: 6mer-1-899 (KRMKWK)
Result: three

====

Target System: acetylcholine receptor (Homo sapiens, UniProt P02708)
Sequence (P02708 21-457): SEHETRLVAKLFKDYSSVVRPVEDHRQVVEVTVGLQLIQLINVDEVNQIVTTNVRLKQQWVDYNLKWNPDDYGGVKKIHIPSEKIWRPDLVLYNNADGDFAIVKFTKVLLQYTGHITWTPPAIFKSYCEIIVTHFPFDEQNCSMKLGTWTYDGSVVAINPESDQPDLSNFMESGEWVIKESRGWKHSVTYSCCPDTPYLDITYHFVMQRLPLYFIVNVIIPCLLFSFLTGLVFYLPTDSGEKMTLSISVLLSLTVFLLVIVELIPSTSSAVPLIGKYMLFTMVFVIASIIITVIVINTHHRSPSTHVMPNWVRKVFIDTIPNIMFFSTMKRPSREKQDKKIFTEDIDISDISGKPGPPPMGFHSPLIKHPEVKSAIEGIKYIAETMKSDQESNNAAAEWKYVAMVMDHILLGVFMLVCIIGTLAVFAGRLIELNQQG
Experimental Details: SPR binding affinity (RU) of optimized 5mer/6mer/7mer peptides, Examples 6-7
Study Conditions: SPR, Resonance Units; peptides tested at 10 μM; 6mer-2 Bottom sequence
Assay Readout: Binding affinity (Ru)
Kindly answer with a numeric value in Ru, unit omitted.

# annotated cases, reported Binding affinity shown
6mer-2-784 (KAEWRK) : 26
6mer-2-632 (KYDIKR) : 12
6mer-2-871 (REMPKR) : 31
6mer-2-648 (RYPDRK) : 23
6mer-2-929 (KNHMRK) : 26
6mer-2-881 (KDTEKK) : 33

Q: Report Binding affinity, nothing else, for this substance: 6mer-2-695 (KCWWRR)
Result: 28

Q: Write down Binding affinity measured for item 6mer-2-884 (KMTMKK)
Result: 11

Q: Entry 6mer-2-745 (KNTERR) needs its Binding affinity filled in; supply it.
Result: 17

Q: Name the recorded Binding affinity of the item 6mer-2-724 (KYTMKK) in your answer.
Result: 24

Q: Complete the entry with Binding affinity for 6mer-2-936 (KPPAKK)
Result: 21

Q: Specify measured Binding affinity for 6mer-2-927 (RFNPRK) .
Result: 39

Q: Look up and state reported Binding affinity for 6mer-2-973 (KCPIKK)
Result: 41

Q: Tell me measured Binding affinity for 6mer-2-965 (KPWFKR) please.
Result: 36

Q: Give me measured Binding affinity, please, for this substance: 6mer-2-761 (RTEPRK)
Result: 29

====

Target System: acetylcholine receptor (Homo sapiens, UniProt P02708)
Experimental Details: SPR binding affinity (RU) of optimized 5mer/6mer/7mer peptides, Examples 6-7
Study Conditions: SPR, Resonance Units; peptides tested at 10 μM; 6mer-2 Bottom sequence
Assay Readout: Binding affinity

Consider the worked cases shown below.
6mer-2-837 (REDFRR) : 32 Ru
6mer-2-771 (KITARR) : 26 Ru
6mer-2-986 (KNWARR) : 27 Ru
6mer-2-827 (KYAEKK) : 13 Ru
6mer-2-899 (KKMVKR) : 13 Ru

Q: Read the entry 6mer-2-754 (KADGRR) and write its reported Binding affinity.
Result: 12 Ru

Q: Report Binding affinity, nothing else, for this substance: 6mer-2-783 (RDMVRK)
Result: 32 Ru

Q: # return recorded Binding affinity for entry 6mer-2-692 (KYTNRR)
Result: 29 Ru

Q: Input 6mer-2-855 (REMIKR) , output reported Binding affinity.
Result: 19 Ru

Q: For the substance 6mer-2-640 (KFKKKR) , report Binding affinity.
Result: 21 Ru

Q: Provide only the value of recorded Binding affinity for 6mer-2-747 (RANFRR)
Result: 29 Ru

Q: Please list Binding affinity recorded for the substance 6mer-2-625 (RFPDKK)
Result: 33 Ru

Q: Indicate its recorded Binding affinity; the substance in question is 6mer-2-666 (KPMDRR)
Result: 25 Ru

Q: Hello, please tell me recorded Binding affinity for this one: 6mer-2-789 (KNENRK)
Result: 24 Ru

Q: Supply Binding affinity value. Item: 6mer-2-778 (RNAPKK)
Result: 21 Ru

Q: Hello, please tell me recorded Binding affinity for this one: 6mer-2-763 (KMKERR)
Result: 19 Ru
